Origin of measurements: paper PMC12673918

I'd be grateful if you could share measured inhibition at 50 µM for these entries.
Test system: HGC‐27 (gastric carcinoma)
assay: Resazurin cell viability assay, HGC‐27
Assay type: cell-based
measurement.conditions: Homo sapiens, HGC-27; 50 µM, 72 h, mean ± SD, n = 3; read-out: % Cellular growth inhibition (at 50 µM) HGC‐27
Note: unit % is implicit; provide only the numeric part.

Asked: Please tell me: inhibition at 50 µM of COc1ccc2c(C(=O)c3cc(OC)c(OC)c(OC)c3)c(C(F)(F)F)cn2c1 [Compound 8e] , system HGC‐27 (gastric carcinoma)?
Given back: 53

Asked: Please tell me: inhibition at 50 µM of COc1ccc2c(C(=O)c3ccc(Cl)cc3)ccn2c1 [Compound 7b] , system HGC‐27 (gastric carcinoma)?
Given back: 10

Asked: Please tell me: inhibition at 50 µM of CCCc1cn2cc(OC)ccc2c1C(=O)c1cc(OC)c(OC)c(OC)c1 [Compound 8h] , system HGC‐27 (gastric carcinoma)?
Given back: 70

Asked: Please tell me: inhibition at 50 µM of COc1ccc2c(C(=O)c3cc(OC)c(OC)c(OC)c3)c(-c3ccc(C)cc3)cn2c1 [Compound 8j] , system HGC‐27 (gastric carcinoma)?
Given back: 71

Asked: Please tell me: inhibition at 50 µM of COc1cc(C(=O)Cc2ccccn2)cc(OC)c1OC [Compound 4f] , system HGC‐27 (gastric carcinoma)?
Given back: 10

Asked: Please tell me: inhibition at 50 µM of CCCCCc1cn2cc(OC)ccc2c1C(=O)c1cc(OC)c(OC)c(OC)c1 [Compound 8i] , system HGC‐27 (gastric carcinoma)?
Given back: 61

Asked: Please tell me: inhibition at 50 µM of Cc1ccc(C(=O)c2ccn3ccccc23)cc1 [Compound 6c, (Indolizin‐1‐yl)(p‐tolyl)methanone] , system HGC‐27 (gastric carcinoma)?
Given back: 20

Asked: Please tell me: inhibition at 50 µM of COc1ccc(CC(=O)c2cc(OC)c(OC)c(OC)c2)nc1 [Compound 5f] , system HGC‐27 (gastric carcinoma)?
Given back: 48

Asked: Please tell me: inhibition at 50 µM of O=C(c1ccccc1)c1ccn2ccccc12 [Compound 6a, (Indolizin‐1‐yl)(phenyl)methanone] , system HGC‐27 (gastric carcinoma)?
Given back: 20

Asked: Please tell me: inhibition at 50 µM of COc1ccc2c(C(=O)c3cc(OC)c(OC)c(OC)c3)c(-c3ccccn3)cn2c1 [Compound 8g] , system HGC‐27 (gastric carcinoma)?
Given back: 44

Asked: Please tell me: inhibition at 50 µM of COc1ccc2c(C(=O)c3ccc(Cl)c(Cl)c3)ccn2c1 [Compound 7e] , system HGC‐27 (gastric carcinoma)?
Given back: 68

Asked: Please tell me: inhibition at 50 µM of COc1ccc(-c2cn3cc(OC)ccc3c2C(=O)c2cc(OC)c(OC)c(OC)c2)cc1 [Compound 8k] , system HGC‐27 (gastric carcinoma)?
Given back: 74

Asked: Please tell me: inhibition at 50 µM of COc1ccc(C(=O)c2ccn3ccccc23)cc1 [Compound 6d] , system HGC‐27 (gastric carcinoma)?
Given back: 24

Asked: Please tell me: inhibition at 50 µM of COc1cc(C(=O)c2ccn3ccccc23)cc(OC)c1OC [Compound 6f] , system HGC‐27 (gastric carcinoma)?
Given back: 38

Asked: Please tell me: inhibition at 50 µM of O=C(c1ccc(Cl)cc1)c1ccn2ccccc12 [Compound 6b] , system HGC‐27 (gastric carcinoma)?
Given back: 26

Asked: Please tell me: inhibition at 50 µM of COc1ccc2c(C(=O)c3cc(OC)c(OC)c(OC)c3)ccn2c1 [Compound 7f] , system HGC‐27 (gastric carcinoma)?
Given back: 43

Asked: Please tell me: inhibition at 50 µM of O=C(c1ccc(Cl)c(Cl)c1)c1ccn2ccccc12 [Compound 6e] , system HGC‐27 (gastric carcinoma)?
Given back: 41

Asked: Please tell me: inhibition at 50 µM of COc1ccc2c(C(=O)c3cc(OC)c(OC)c(OC)c3)c(C)cn2c1 [Compound 8a] , system HGC‐27 (gastric carcinoma)?
Given back: 41

Asked: Please tell me: inhibition at 50 µM of COc1ccc2c(C(=O)c3ccccc3)ccn2c1 [Compound 7a] , system HGC‐27 (gastric carcinoma)?
Given back: 18
